Experiment: in vitro
Type: cell-based
Conditions: human, MT-4 cells
No end group written: not given here.
measured.attribute: CC50 at 120 h (µM)
Report the value in µM with no unit label.

State, in one line, measured CC50 at 120 h of GGITLVPLP-NH2 (C-terminus assumed) [TBIA101] 63.2

###

Assay: in vitro
Type: cell-based
Conditions: human
Residues, ends and D or L forms follow the SMILES beside them. *: point of attachment. DOTA = O=C(O)CN1CCN(CC(=O)O)CCN(CC(=O)*)CCN(CC(=O)O)CC1
measured.attribute: IC50 at 5 days (µM)
Report the value in µM with no unit label.

State, in one line, measured IC50 at 5 days of CC[C@H](C)[C@H](NC(=O)[C@@H](NC(=O)[C@H](CC(C)C)NC(=O)[C@@H](NC(=O)[C@@H]1CCCN1C(=O)[C@H](CC(C)C)NC(=O)[C@@H]1CCCN1C(=O)CN1CCN(CC(=O)O)CCN(CC(=O)O)CCN(CC(=O)O)CC1)C(C)C)[C@@H](C)O)C(=O)NCC(=O)NCC(N)=O [natGa-DOTA-TBIA101, metal not drawn] ({DOTA}-PLPVLTIGG-NH2) 33.7

Data provenance: paper PMC4324493
